# Target entity: BuChE (Homo sapiens)
# Sequence (P06276 29-602): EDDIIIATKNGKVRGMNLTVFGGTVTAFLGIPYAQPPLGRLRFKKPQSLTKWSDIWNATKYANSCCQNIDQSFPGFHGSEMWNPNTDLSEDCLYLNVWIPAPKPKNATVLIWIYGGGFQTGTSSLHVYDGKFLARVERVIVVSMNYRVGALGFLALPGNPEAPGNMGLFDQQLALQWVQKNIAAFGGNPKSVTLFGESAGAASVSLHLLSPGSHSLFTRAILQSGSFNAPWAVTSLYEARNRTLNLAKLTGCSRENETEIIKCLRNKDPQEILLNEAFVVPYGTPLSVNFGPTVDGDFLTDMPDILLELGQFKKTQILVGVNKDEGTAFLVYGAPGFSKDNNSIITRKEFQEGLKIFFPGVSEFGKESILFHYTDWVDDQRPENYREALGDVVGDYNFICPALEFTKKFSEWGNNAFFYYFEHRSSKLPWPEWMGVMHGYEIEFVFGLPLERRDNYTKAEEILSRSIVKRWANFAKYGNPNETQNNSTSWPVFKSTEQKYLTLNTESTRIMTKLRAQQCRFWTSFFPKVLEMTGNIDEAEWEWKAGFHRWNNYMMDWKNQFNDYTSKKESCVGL
# Measurement protocol: biochemical
# Particulars: in vitro enzyme inhibition; read-out: BuChE IC50 (µM ± SEM)
# strict inequality: IC50 < 20 µM yields t, everything else yields f

Exercise: Does this compound meet the criterion IC50 < 20 µM? Cc1ccc(Nc2nnc(Cc3cc4cc(Cl)ccc4[nH]3)s2)cc1C
Solution: t

Exercise: Report whether reported IC50 is lower than 20 µM (strictly) for O=[N+]([O-])c1cc(Br)cc(Nc2nnc(Cc3cc4cc(Cl)ccc4[nH]3)s2)c1
Solution: t

Exercise: Threshold test, IC50 < 20 µM: Cc1cccc(Nc2nnc(Cc3cc4cc(Cl)ccc4[nH]3)s2)c1C
Solution: t

Exercise: Decide: IC50 of Fc1ccc(Nc2nnc(Cc3cc4cc(Cl)ccc4[nH]3)s2)cc1 strictly below 20 µM?
Solution: t

Exercise: Is 20 µM strictly greater than the compound's reported IC50? compound: Fc1cccc(Nc2nnc(Cc3cc4cc(Cl)ccc4[nH]3)s2)c1
Solution: t

Exercise: Does the reported IC50 of Fc1ccccc1Nc1nnc(Cc2cc3cc(Cl)ccc3[nH]2)s1 stay below 20 µM?
Solution: t

Exercise: For O=[N+]([O-])c1ccc(Br)c(Nc2nnc(Cc3cc4cc(Cl)ccc4[nH]3)s2)c1 , is the recorded IC50 below the cut-off of 20 µM?
Solution: f

Exercise: Does the reported IC50 of the following compound sit strictly below 20 µM? COc1c(Nc2nnc(Cc3cc4cc(Cl)ccc4[nH]3)s2)cccc1[N+](=O)[O-]
Solution: t

Exercise: Take the compound FC(F)(F)c1ccc(Nc2nnc(Cc3cc4cc(Cl)ccc4[nH]3)s2)cc1Cl and say whether its IC50 is less than 20 µM.
Solution: t

Exercise: Given the entry O=[N+]([O-])c1cc(Nc2nnc(Cc3cc4cc(Cl)ccc4[nH]3)s2)ccc1Br , would its reported IC50 be below 20 µM?
Solution: f

Exercise: Hello, I'm reviewing records and need to know if IC50 of COc1cc(Nc2nnc(Cc3cc4cc(Cl)ccc4[nH]3)s2)ccc1[N+](=O)[O-] is below 20 µM. Could you check?
Solution: f

----------
# Target entity: AChE (Homo sapiens)
# Sequence (P22303 32-614): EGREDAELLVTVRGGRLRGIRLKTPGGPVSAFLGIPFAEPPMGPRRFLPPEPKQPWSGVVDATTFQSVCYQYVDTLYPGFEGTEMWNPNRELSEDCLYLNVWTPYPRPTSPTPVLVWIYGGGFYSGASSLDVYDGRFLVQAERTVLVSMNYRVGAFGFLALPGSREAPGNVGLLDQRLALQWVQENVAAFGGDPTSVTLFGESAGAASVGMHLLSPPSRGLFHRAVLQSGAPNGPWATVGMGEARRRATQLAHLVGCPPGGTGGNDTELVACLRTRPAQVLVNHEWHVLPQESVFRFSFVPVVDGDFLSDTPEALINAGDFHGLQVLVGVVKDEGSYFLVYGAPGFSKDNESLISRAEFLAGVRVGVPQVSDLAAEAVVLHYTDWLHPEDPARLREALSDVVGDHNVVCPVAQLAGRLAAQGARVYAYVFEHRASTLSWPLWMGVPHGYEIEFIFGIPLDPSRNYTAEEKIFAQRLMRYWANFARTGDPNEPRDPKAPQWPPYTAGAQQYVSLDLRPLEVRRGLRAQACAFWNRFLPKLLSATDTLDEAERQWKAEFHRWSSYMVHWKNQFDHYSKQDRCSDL
# Measurement protocol: biochemical
Measure: pIC50
// returns pIC50 (minus log10 of molar concentration), number only

Exercise: Which pIC50 is reported for this molecule? O=[N+]([O-])c1cccc([N+](=O)[O-])c1Nc1nnc(Cc2cc3cc(Cl)ccc3[nH]2)s1
Solution: 5.55

Measured values drawn from paper PMC9657098 for this set.
